B1: SLC2A12 (parent)
chain: CLLGLGSLVLILSLSYTVLIVGRI

# Variants of: B1
# Test Summary: protein stability index of a GFP-peptide fusion (GPS, HEK-293T) (PSI 1-6); higher = more stable;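 note: lentivirally expressed fusions sorted by FACS into six bins by GFP to DsRed ratio, PSI derived from sequencing read proportions per bin multiplied by bin number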
# Applied Conditions: c terminus: a fixed tail appended
Form field: protein stability index (one value per entry).
Readout: protein stability index

CLLGLGSLVLILSFSYTVLIVGRI 2.16
CLLGLGSLVLILSLNYTVLIVGRI 3.57
CLLGLGTLVLILSLSYTVLIVGRI 2.51
CLLGLGALVLILSLSYTVLIVGRI 3.86
LLLGLGSLVLILSLSYTVLIVGRI 2.46
CCLGLGSLVLILSLSYTVLIVGRI 2.93
CLLGLGSLVLYLSLSYTVLIVGRI 1.36
CLLGLGSLVLILSLSYTVLIVGYI 1.35
CLLGLGSLKLILSLSYTVLIVGRI 1.27
CLLGLGSLVLILSLSYTVLIVTRI 4.65
CLLGLGSLVLILSLSYTVLIYGRI 3.38
CLLGHGSLVLILSLSYTVLIVGRI 2.6
CLLGLGSLVLILSLSPTVLIVGRI 3.53
CLLGLGSLVLILSLSYTKLIVGRI 2.98
ILLGLGSLVLILSLSYTVLIVGRI 1.83
CLLGMGSLVLILSLSYTVLIVGRI 3.94
CLLGLCSLVLILSLSYTVLIVGRI 4.32
CLLGLGSLVLILSVSYTVLIVGRI 3.61
CLLFLGSLVLILSLSYTVLIVGRI 3.56
CLLYLGSLVLILSLSYTVLIVGRI 4.5
CLLGLGSLVLILSLSYTVLNVGRI 3.97
CLLGLDSLVLILSLSYTVLIVGRI 3.1
